# pest or weed control at 140 g/ha per entry
Test system: Key Grass and Sedge Weeds as well as Grass Crops
Experiment: Post-emergent Test II herbicidal activity (Table 6)
Type: in vivo
Settings: post-emergence, 336 h, SETFA: giant foxtail (Setaria faberi), application rate 140 g ai/ha, read-out: Visual Growth Reduction (%) 14 Days After Application, SETFA
observable: pest or weed control at 140 g/ha

>>> df
                                 mol_smiles                        observable  recorded_measurement
0  C#Cc1ccc(-c2nc(N)c(OC)c(C(=O)O)n2)c(F)c1F  pest or weed control at 140 g/ha              0 to 29%
1    COc1c(N)nc(-c2cc(F)c(Br)cc2F)nc1C(=O)O  pest or weed control at 140 g/ha             60 to 74%
2  COC(=O)c1nc(-c2c(F)cc(I)c(F)c2F)cc(N)c1Cl  pest or weed control at 140 g/ha             85 to 94%

* * *

Tested on: LAMSS
Assay: Post-emergent Test III, herbicidal activity in wheat and barley
Assay type: in vivo
Conditions: post-emergence, 504 h; 35 g ai/ha; read-out: Visual Growth Reduction (%) 21 Days After Application LAMSS
# pest or weed control at 35 g/ha per entry
observable: pest or weed control at 35 g/ha

In [3]: df
Out[3]:
                                 mol_smiles  recorded_measurement
0  Nc1c(F)c(-c2ccc(C(F)(F)F)c(F)c2F)nc(C(=O)O)c1Cl            95 to 100%
1  Nc1c(F)c(-c2ccc(Br)c(F)c2F)nc(C(=O)O)c1Cl             85 to 94%
2    COC(=O)c1nc(-c2ccc(Br)cc2)c(F)c(N)c1Cl            95 to 100%

* * *

# pest or weed control at 140 g/ha per entry
Tested on: Key Grass and Sedge Weeds as well as Grass Crops
Experiment: Post-emergent Test II herbicidal activity (Table 6)
Type: in vivo
Settings: post-emergence, 336 h, CYPES: yellow nutsedge (Cyperus esculentus), 140 g ai/ha, read-out: Visual Growth Reduction (%) 14 Days After Application, CYPES
observable: pest or weed control at 140 g/ha

In [3]: df
Out[3]:
                                   compound  recorded_measurement
0  C#Cc1ccc(-c2nc(C(=O)O)c(Cl)c(N)c2F)c(F)c1F [Compound 50]              0 to 29%
1  COC(=O)c1nc(-c2ccccc2)c(F)c(N)c1Cl [Compound 181]            95 to 100%
2  Nc1cc(-c2ccc(C(F)(F)F)c(F)c2F)nc(C(=O)O)c1Cl [Compound 172]            95 to 100%

* * *

# pest or weed control at 140 g/ha per entry
Tested on: Key Grass and Sedge Weeds as well as Grass Crops
Experiment: Post-emergent Test II herbicidal activity (Table 6)
Format: in vivo
Conditions: post-emergence, 336 h, TRZSS (wheat, Triticum aestivum), crop, 140 g ai/ha, read-out: Visual Growth Reduction (%) 14 Days After Application, TRZSS
observable: pest or weed control at 140 g/ha

>>> print(df.to_string())
                                 mol_smiles                        observable  recorded_measurement
0        Nc1cc(-c2ccc(Br)cc2)nc(C(=O)O)c1Cl  pest or weed control at 140 g/ha             60 to 74%
1  COC(=O)c1nc(-c2ccc(OC(F)F)cc2)c(F)c(N)c1Cl  pest or weed control at 140 g/ha             30 to 44%
2    N#Cc1ccc(-c2nc(C(=O)O)c(Cl)c(N)c2F)cc1  pest or weed control at 140 g/ha             45 to 59%
3  C#Cc1ccc(-c2nc(C(=O)O)c(Cl)c(N)c2F)c(F)c1F  pest or weed control at 140 g/ha              0 to 29%
4      COC(=O)c1nc(-c2ccc(Br)cc2F)nc(N)c1OC  pest or weed control at 140 g/ha             45 to 59%
5         Nc1cc(-c2ccc(I)cc2)nc(C(=O)O)c1Cl  pest or weed control at 140 g/ha             75 to 84%
6  COC(=O)c1nc(-c2ccc(OC(F)F)c(F)c2)c(F)c(N)c1Cl  pest or weed control at 140 g/ha              0 to 29%
7    COC(=O)c1nc(-c2cccc(F)c2F)c(F)c(N)c1Cl  pest or weed control at 140 g/ha              0 to 29%
8    Nc1cc(-c2ccc(Br)c(F)c2F)nc(C(=O)O)c1Cl  pest or weed control at 140 g/ha             45 to 59%
